Tested on: 743489-274-T-PDC complex spheroid viability;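 also: spheroids exposed to compounds for 7 days before readout; 100% = DMSO vehicle control wells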
assay_info: Anticancer human tumor 743489-274-T-PDC patient-derived renal cell carcinoma cell line growth inhibition
assay_context: second compound 3.16 µM; first compound 1 µM; stronger effect = lower value
reported_endpoint: viability, T/C (%)

compound | target_or_system | reported_endpoint | readout_units | result_value
O=C(c1cc(Cc2n[nH]c(=O)c3ccccc23)ccc1F)N1CCN(C(=O)C2CC2)CC1 + NC1CCC(NC2CC2c2ccccc2)CC1 | 743489-274-T-PDC complex spheroid viability | viability, T/C | % | 98.8
CC1COCCN1c1cc(-c2ccnn2C)c2ccnc(-c3ccn[nH]3)c2n1 (configuration not stated) + NC1CC1c1ccc(-c2cccc(O)c2)cc1 | 743489-274-T-PDC complex spheroid viability | viability, T/C | % | 41.5
CC(C)c1c(-c2ccccc2)nc2c(C#N)c[nH]n2c1=O + NC1CC1c1ccc(-c2cccc(O)c2)cc1 | 743489-274-T-PDC complex spheroid viability | viability, T/C | % | 111
COc1cc(Nc2ncc3c(n2)-c2ccc(Cl)cc2C(c2c(F)cccc2OC)=NC3)ccc1C(=O)O + NC1CC1c1ccc(-c2cccc(O)c2)cc1 | 743489-274-T-PDC complex spheroid viability | viability, T/C | % | 79
Nc1ncn(C2CC(O)C(CO)O2)c(=O)n1 (configuration not stated) + NC1CCC(NC2CC2c2ccccc2)CC1 | 743489-274-T-PDC complex spheroid viability | viability, T/C | % | 97.8
CC1COCCN1c1cc(C2(S(C)(=N)=O)CC2)nc(-c2ccnc3[nH]ccc23)n1 (configuration not stated) + NC1CC1c1ccc(-c2cccc(O)c2)cc1 | 743489-274-T-PDC complex spheroid viability | viability, T/C | % | 102
O=C(c1cc(Cc2n[nH]c(=O)c3ccccc23)ccc1F)N1CCN(C(=O)C2CC2)CC1 + NC1CC1c1ccc(-c2cccc(O)c2)cc1 | 743489-274-T-PDC complex spheroid viability | viability, T/C | % | 106
